Tested on: NCI-H2170
method: relative viability (nuclei count vs DMSO), 5 days (fraction); higher = more cells survive
details: first compound 0.5 µM
Consider the cut-off 0.6. If the recorded relative viability is strictly smaller, the label is Satisfied; if not, the label is Not satisfied.

INSERT INTO measurements (compound, assigned_label) VALUES
  ('Nc1ccn([C@@H]2O[C@H](CO)[C@@H](O)[C@@H]2O)c(=O)n1 [Cytarabine] + CCNC(=O)c1noc(-c2cc(C(C)C)c(O)cc2O)c1-c1ccc(CN2CCOCC2)cc1 [Luminespib] (partner 0.01 µM)', 'Satisfied'),
  ('COc1cc2nccc(Oc3ccc(NC(=O)Nc4cc(C)on4)c(Cl)c3)c2cc1OC [Tivozanib] + Nc1nc2[nH]cc(CCc3ccc(C(=O)N[C@@H](CCC(=O)O)C(=O)O)cc3)c2c(=O)[nH]1 [Pemetrexed] (partner 0.2 µM)', 'Satisfied'),
  ('COc1cc2nccc(Oc3ccc(NC(=O)Nc4cc(C)on4)c(Cl)c3)c2cc1OC [Tivozanib] + C[C@@H](Oc1cc(-c2cnn(C3CCNCC3)c2)cnc1N)c1c(Cl)ccc(F)c1Cl [Crizotinib] (partner 1 µM)', 'Not satisfied');

Lab note: relative viability threshold 0.6. Does this compound come in strictly under it? Nc1ccn([C@@H]2O[C@H](CO)[C@@H](O)[C@@H]2O)c(=O)n1 [Cytarabine] + O=C(c1cc(Cc2n[nH]c(=O)c3ccccc23)ccc1F)N1CCN(C(=O)C2CC2)CC1 [Olaparib] (partner 8 µM)
Satisfied

Lab note: relative viability threshold 0.6. Does this compound come in strictly under it? COc1cc2nccc(Oc3ccc(NC(=O)Nc4cc(C)on4)c(Cl)c3)c2cc1OC [Tivozanib] + COc1cc2c(Oc3ccc(NC(=O)C4(C(=O)Nc5ccc(F)cc5)CC4)cc3F)ccnc2cc1OCCCN1CCOCC1 [Foretinib] (partner 0.25 µM)
Not satisfied

Lab note: relative viability threshold 0.6. Does this compound come in strictly under it? COc1cc2nccc(Oc3ccc(NC(=O)Nc4cc(C)on4)c(Cl)c3)c2cc1OC [Tivozanib] + Cc1cc(Nc2cc(N3CCN(C)CC3)nc(Sc3ccc(NC(=O)C4CC4)cc3)n2)n[nH]1 [Tozasertib] (partner 0.1 µM)
Not satisfied
